Target: GST-PPARG-LBD (Homo sapiens, UniProt P37231)
Construct: A mixture of 5 nM GST-PPARG-LBD; purchased Invitrogen
Sequence (P37231 238-503 limits assumed): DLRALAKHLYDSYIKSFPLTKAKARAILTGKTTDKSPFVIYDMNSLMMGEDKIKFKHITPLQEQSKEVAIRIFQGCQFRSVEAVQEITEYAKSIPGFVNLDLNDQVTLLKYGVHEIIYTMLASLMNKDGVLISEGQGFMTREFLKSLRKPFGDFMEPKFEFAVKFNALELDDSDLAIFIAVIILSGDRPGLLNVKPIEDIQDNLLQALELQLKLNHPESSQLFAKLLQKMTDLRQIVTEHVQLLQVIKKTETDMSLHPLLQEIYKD
Experiment: Lanthascreen PPARG competitive binding assay (Invitrogen)
Details: Table 3; read-out: IC50 (nM) Lantha
REPORTED_METRIC: IC50 (nM)
Express your answer in nM, writing the number without its unit.

# COMPOUND, MEASURED_ON, IC50 (nM)
records = [
    ("CC(C)c1cccc([C@H](C)NC(=O)c2ccc3c(c2)ncn3Cc2ccc(-c3ccccc3CO)cc2)c1 [Compound 21]", "GST-PPARG-LBD (Homo sapiens, UniProt P37231)", 6490),
    ("CC(C)c1cccc([C@H](C)NC(=O)c2ccc3c(c2)ncn3Cc2ccc(-c3cccnc3C(=O)O)cc2)c1 [Compound 24]", "GST-PPARG-LBD (Homo sapiens, UniProt P37231)", 2130),
    ("O=C(NCC1CC1)c1ccc2c(c1)ncn2Cc1ccc(-c2ccccc2C(=O)O)cc1 [Compound 17]", "GST-PPARG-LBD (Homo sapiens, UniProt P37231)", 22100),
    ("CC(C)CCNC(=O)c1ccc2c(c1)ncn2Cc1ccc(-c2ccccc2C(=O)O)cc1 [Compound 18]", "GST-PPARG-LBD (Homo sapiens, UniProt P37231)", 2430),
    ("CC(C)c1cccc([C@H](C)NC(=O)c2ccc3c(c2)ncn3Cc2ccc(-c3ccccc3C(=O)O)cc2)c1 [Compound 23]", "GST-PPARG-LBD (Homo sapiens, UniProt P37231)", 683),
    ("Cc1nc2cc(C(=O)N[C@@H](C)c3cccc(C(C)C)c3)ccc2n1Cc1ccc(-c2ccccc2C(O)C(F)(F)F)cc1 (stereo partly drawn) [Compound 25]", "GST-PPARG-LBD (Homo sapiens, UniProt P37231)", 5470),
]

I would be grateful if you could share the reported IC50 for CC(C)c1cccc([C@H](C)NC(=O)c2ccc3c(c2)ncn3Cc2ccc(-c3ccccc3C(O)C(F)(F)F)cc2)c1 (stereo partly drawn) [Compound 26] . 15700

I would be grateful if you could share the reported IC50 for CC(C)CC(C)NC(=O)c1ccc2c(c1)ncn2Cc1ccc(-c2ccccc2C(=O)O)cc1 (stereo not drawn) [Compound 14] . 102

I would be grateful if you could share the reported IC50 for CC(C)c1cccc([C@H](C)NC(=O)c2ccc3c(c2)ncn3Cc2ccc(-c3ccccc3C(=O)O)cc2)c1 [Compound 22] . 1830

# credit: patent US9309227B2
